- assay.system: T1, CD33 (UniProt P20138 18-259, limits assumed)
- T1 construct: CD33 protein used as the active surface in the Biacore assay (about 1000 RU); also called Siglec-3; SIGLEC3
- T1 sequence (P20138 18-259 limits assumed): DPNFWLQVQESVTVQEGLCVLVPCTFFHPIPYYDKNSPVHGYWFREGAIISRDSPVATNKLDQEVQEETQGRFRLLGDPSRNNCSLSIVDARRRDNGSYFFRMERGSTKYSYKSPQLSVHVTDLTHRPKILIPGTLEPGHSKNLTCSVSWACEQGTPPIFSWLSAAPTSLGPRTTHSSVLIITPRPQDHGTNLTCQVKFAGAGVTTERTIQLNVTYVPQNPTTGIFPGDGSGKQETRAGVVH
- experiment.notes: SPR, Biacore T-200, CD33 amine-coupled on CM5 chip, antibody as analyte (31-500 nM)
I'd appreciate it if you marked entries Condition met when Kd is lower than 0.3 pM and Condition not met when it is not.

The examples below pair each entry with its known result.
- My96-H3L3 (antibody, human IgG1, V domains shown, Humanized My96 IgG (human IgG1 frameworks), expressed in DG44 cells; also called humanized My96 VH-3/VL-3) VH: QVQLVQSGAEVKKPGASVKVSCKASGYTFTSYYIHWVRQAPGQGLEWMGVIYPGNDDISYAQKFQGRVTITADKSATTAYMELSSLRSEDTAVYYCAREVRLRYFDVWGQGTLVTVSS VL: NIVLTQSPDSLAVSLGERATINCKSSQSVFFSSSQKNYLAWYQQRPGQPPKLLIYWASTRESGVPDRFSGSGSGTDFTLTISRLQAEDVAVYYCHQYLSSRTFGGGTKVEIK: Condition not met
- My96-H1L3 (antibody, human IgG1, V domains shown, Humanized My96 IgG (human IgG1 frameworks), expressed in DG44 cells; also called humanized My96 VH-1/VL-3) VH: QVQLVQSGAEVKKPGASVKVSCKASGYTFTSYYMHWVRQAPGQGLEWMGVIYPGNDDISYAQKFQGRVTMTADTSTSTVYMELSSLRSEDTAVYYCAREVRLRYFDVWGAGTTVTVSS VL: NIVLTQSPDSLAVSLGERATINCKSSQSVFFSSSQKNYLAWYQQRPGQPPKLLIYWASTRESGVPDRFSGSGSGTDFTLTISRLQAEDVAVYYCHQYLSSRTFGGGTKVEIK: Condition not met
- chMy96 (antibody, V domains shown, also called chimeric form of My96; chimeric anti-CD33 antibody) VH: QVQLQQPGAEVVKPGASVKMSCKASGYTFTSYYIHWIKQTPGQGLEWVGVIYPGNDDISYNQKFKGKATLTADKSSTTAYMQLSSLTSEDSAVYYCAREVRLRYFDVWGAGTTVTVSS VL: NIMLTQSPSSLAVSAGEKVTMSCKSSQSVFFSSSQKNYLAWYQQIPGQSPKLLIYWASTRESGVPDRFTGSGSGTDFTLTISSVQSEDLAIYYCHQYLSSRTFGGGTKLEIK: Condition not met
- My96-H1L2 (antibody, human IgG1, V domains shown, Humanized My96 IgG (human IgG1 frameworks), expressed in DG44 cells; also called humanized My96 VH-1/VL-2) VH: QVQLVQSGAEVKKPGASVKVSCKASGYTFTSYYMHWVRQAPGQGLEWMGVIYPGNDDISYAQKFQGRVTMTADTSTSTVYMELSSLRSEDTAVYYCAREVRLRYFDVWGAGTTVTVSS VL: NIVLTQSPDSLAVSLGERATINCKSSQSVFFSSSQKNYLAWYQQKPGQPPKLLIYWASTRESGVPDRFSGSGSGTDFTLTISSLQAEDVAVYYCHQYLSSRTFGGGTKLEIK: Condition met
- My96-H2L2 (antibody, human IgG1, V domains shown, Humanized My96 IgG (human IgG1 frameworks), expressed in DG44 cells; also called humanized My96 VH-2/VL-2) VH: QVQLVQSGAEVKKPGASVKVSCKASGYTFTSYYMHWVRQAPGQGLEWMGVIYPGNDDISYNQKFQGRVTMTADKSTSTVYMELSSLRSEDTAVYYCAREVRLRYFDVWGAGTTVTVSS VL: NIVLTQSPDSLAVSLGERATINCKSSQSVFFSSSQKNYLAWYQQKPGQPPKLLIYWASTRESGVPDRFSGSGSGTDFTLTISSLQAEDVAVYYCHQYLSSRTFGGGTKLEIK: Condition met

Consider the additional binder presented here.
[in] Kd under 0.3 pM? Item: My96-H2L3 (antibody, human IgG1, V domains shown, Humanized My96 IgG (human IgG1 frameworks), expressed in DG44 cells; also called humanized My96 VH-2/VL-3) VH: QVQLVQSGAEVKKPGASVKVSCKASGYTFTSYYMHWVRQAPGQGLEWMGVIYPGNDDISYNQKFQGRVTMTADKSTSTVYMELSSLRSEDTAVYYCAREVRLRYFDVWGAGTTVTVSS VL: NIVLTQSPDSLAVSLGERATINCKSSQSVFFSSSQKNYLAWYQQRPGQPPKLLIYWASTRESGVPDRFSGSGSGTDFTLTISRLQAEDVAVYYCHQYLSSRTFGGGTKVEIK
[out] Condition met

Ref: patent US20220251192A1
